target: SCD1 (Rattus norvegicus, UniProt P07308); construct: The resuspended microsome fraction was stored at −80° C; from tissue; host or cells: liver microsomes of male Wistar rats fed a carbohydrate-rich, low-fat diet; experiment: stearoyl-CoA desaturase (SCD1) activity, thin-layer chromatography assay with rat liver microsomes; assay type: biochemical; conditions: compound at 10 μM, [1-14C]-stearic acid, 37° C., 1 h
Sequence (P07308 whole entry): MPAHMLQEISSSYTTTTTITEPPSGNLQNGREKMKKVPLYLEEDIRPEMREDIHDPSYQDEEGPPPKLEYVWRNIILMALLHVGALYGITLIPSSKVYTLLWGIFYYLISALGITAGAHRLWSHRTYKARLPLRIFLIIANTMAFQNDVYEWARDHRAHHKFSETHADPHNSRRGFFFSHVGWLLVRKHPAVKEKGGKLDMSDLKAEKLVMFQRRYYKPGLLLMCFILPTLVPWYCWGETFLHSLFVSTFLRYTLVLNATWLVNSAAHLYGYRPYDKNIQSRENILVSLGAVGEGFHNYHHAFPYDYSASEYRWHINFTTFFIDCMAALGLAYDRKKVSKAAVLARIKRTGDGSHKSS
The entries below are paired with their reported % Inhibition (10 μM).
measurement label: % Inhibition (10 μM) (%)

1. CC(C)CCNC(=O)c1ccc2nc(-c3ccc(Oc4ccccc4Cl)cc3)[nH]c2c1 [Example 13] : 58
2. O=C(NCc1ccc(Cl)s1)c1ccc2nc(-c3ccc(Oc4ccccc4)cc3)[nH]c2c1 [Example 8] : 37
3. O=C(NCc1ccc(Cl)s1)c1ccc2nc(-c3ccc(C(=O)c4ccccc4C(F)(F)F)cc3)[nH]c2c1 [Example 27] : 100
4. O=C(NCc1cccs1)c1ccc2nc(-c3ccc(C(=O)c4ccccc4C(F)(F)F)cc3)[nH]c2c1 [Example 19] : 100
5. O=C(NCc1nccs1)c1ccc2nc(-c3ccc(Oc4ccccc4Cl)cc3)[nH]c2c1 [Example 16] : 86
6. O=C(NCCC1CC1)c1ccc2nc(-c3ccc(Oc4ccccc4Cl)cc3)[nH]c2c1 [Example 14] : 80
7. O=C(NCc1nccs1)c1ccc2nc(-c3ccc(Oc4ccccc4C(F)(F)F)cc3)[nH]c2c1 [Example 25] : 100
8. O=C(NCCC1CC1)c1ccc2nc(-c3ccc(Oc4ccccc4C(F)(F)F)cc3)[nH]c2c1 [Example 23] : 96
9. CC(C)CCNC(=O)c1ccc2nc(-c3ccc(Oc4ccccc4C(F)(F)F)cc3)[nH]c2c1 [Example 24] : 77
10. CC(C)CNC(=O)c1ccc2nc(-c3ccc(C(=O)c4ccccc4C(F)(F)F)cc3)[nH]c2c1 [Example 20] : 77
11. O=C(NCc1nccs1)c1ccc2[nH]c(-c3ccc(C(=O)c4ccccc4C(F)(F)F)cc3)nc2c1 [Example 28] : 100
12. O=C(NCc1nccs1)c1ccc2nc(-c3ccc(Oc4ccccc4)cc3)[nH]c2c1 [Example 9] : 29
13. O=C(NCc1ccc(Cl)s1)c1ccc2nc(-c3ccc(Oc4ccccc4Cl)cc3)[nH]c2c1 [Example 15] : 95

Recorded values, source patent US20100240580A1.
